Would you mind telling me the reported pKd of each entry?
EXPERIMENTAL TARGET: HTTQ54-HAP40 (UniProt P23610 1-371)
Sequence (P42858 other isoform, or with tags, fused parts or gaps, chain 1 of 2): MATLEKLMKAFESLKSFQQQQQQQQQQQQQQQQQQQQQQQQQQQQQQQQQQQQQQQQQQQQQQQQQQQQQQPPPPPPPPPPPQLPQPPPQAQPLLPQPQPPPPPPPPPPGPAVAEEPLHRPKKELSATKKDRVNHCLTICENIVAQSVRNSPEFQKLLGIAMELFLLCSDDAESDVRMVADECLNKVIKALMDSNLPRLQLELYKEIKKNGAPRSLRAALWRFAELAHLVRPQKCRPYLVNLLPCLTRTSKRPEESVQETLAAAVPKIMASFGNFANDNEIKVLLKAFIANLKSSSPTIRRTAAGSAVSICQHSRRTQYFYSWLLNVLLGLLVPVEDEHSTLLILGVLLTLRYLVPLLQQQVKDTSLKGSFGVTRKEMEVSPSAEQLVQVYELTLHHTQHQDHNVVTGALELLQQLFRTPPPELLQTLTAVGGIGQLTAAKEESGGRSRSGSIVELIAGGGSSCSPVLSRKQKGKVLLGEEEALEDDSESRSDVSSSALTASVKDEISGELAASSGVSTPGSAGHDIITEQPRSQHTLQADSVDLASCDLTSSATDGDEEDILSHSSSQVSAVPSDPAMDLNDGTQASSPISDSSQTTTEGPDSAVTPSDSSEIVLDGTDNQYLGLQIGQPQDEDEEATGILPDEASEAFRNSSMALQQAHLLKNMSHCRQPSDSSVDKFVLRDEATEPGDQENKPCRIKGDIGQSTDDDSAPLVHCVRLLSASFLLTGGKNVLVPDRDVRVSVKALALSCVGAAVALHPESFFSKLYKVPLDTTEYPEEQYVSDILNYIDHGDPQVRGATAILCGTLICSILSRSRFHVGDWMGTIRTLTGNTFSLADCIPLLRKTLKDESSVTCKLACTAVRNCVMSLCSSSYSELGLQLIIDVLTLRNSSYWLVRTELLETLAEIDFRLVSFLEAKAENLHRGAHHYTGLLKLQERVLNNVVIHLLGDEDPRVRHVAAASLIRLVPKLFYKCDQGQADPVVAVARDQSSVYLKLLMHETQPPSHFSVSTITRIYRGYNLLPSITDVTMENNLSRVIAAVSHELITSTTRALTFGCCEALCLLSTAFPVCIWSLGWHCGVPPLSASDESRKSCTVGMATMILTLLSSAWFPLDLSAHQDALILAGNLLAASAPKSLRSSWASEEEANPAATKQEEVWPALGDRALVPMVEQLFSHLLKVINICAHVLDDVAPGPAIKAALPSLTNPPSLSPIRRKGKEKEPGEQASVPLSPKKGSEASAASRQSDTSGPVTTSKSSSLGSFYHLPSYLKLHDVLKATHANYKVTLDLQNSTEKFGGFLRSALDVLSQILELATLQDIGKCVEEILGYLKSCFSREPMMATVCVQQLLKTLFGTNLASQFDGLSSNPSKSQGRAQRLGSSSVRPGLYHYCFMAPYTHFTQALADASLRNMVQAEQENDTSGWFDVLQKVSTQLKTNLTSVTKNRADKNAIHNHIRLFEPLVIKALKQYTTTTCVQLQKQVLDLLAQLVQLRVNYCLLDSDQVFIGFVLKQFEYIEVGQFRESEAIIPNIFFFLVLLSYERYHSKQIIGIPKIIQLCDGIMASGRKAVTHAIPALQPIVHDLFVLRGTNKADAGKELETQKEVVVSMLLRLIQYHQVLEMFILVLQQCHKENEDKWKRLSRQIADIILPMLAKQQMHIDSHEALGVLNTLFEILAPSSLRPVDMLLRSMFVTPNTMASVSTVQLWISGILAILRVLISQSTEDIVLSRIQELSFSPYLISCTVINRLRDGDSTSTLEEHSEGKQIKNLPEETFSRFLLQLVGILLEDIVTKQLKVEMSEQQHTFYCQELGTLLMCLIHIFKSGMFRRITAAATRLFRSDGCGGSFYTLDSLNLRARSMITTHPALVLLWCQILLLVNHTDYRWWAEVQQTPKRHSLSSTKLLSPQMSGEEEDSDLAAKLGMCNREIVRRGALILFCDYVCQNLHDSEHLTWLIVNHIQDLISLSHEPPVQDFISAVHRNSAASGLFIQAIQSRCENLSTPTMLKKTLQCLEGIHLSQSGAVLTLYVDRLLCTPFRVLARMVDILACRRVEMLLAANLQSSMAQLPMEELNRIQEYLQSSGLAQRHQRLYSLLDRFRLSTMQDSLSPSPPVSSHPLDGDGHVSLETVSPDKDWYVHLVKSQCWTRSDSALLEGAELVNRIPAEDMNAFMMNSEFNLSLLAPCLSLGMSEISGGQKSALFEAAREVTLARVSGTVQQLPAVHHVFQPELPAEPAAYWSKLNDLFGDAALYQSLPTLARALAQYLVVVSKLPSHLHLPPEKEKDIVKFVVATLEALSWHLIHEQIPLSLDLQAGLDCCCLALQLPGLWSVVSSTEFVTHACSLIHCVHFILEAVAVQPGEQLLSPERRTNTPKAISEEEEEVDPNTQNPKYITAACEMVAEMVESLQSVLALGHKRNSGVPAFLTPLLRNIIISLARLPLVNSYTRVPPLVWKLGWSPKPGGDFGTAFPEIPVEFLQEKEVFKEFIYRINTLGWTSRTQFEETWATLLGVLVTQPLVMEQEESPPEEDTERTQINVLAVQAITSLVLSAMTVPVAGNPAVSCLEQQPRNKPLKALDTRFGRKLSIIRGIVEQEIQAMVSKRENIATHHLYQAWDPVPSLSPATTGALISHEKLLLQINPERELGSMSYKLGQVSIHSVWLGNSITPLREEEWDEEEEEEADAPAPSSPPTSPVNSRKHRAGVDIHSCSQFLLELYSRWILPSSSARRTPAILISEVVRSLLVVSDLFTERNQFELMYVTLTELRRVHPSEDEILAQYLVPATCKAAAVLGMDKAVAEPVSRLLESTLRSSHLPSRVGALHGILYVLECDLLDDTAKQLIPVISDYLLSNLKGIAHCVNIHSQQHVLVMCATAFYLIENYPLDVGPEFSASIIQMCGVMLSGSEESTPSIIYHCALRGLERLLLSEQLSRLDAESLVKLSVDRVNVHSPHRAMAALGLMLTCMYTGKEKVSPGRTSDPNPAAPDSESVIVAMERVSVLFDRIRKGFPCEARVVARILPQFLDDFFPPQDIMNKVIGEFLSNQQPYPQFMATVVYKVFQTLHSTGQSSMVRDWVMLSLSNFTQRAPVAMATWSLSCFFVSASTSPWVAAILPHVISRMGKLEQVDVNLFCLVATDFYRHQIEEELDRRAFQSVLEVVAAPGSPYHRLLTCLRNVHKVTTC
Sequence (P23610 whole entry, chain 2 of 2): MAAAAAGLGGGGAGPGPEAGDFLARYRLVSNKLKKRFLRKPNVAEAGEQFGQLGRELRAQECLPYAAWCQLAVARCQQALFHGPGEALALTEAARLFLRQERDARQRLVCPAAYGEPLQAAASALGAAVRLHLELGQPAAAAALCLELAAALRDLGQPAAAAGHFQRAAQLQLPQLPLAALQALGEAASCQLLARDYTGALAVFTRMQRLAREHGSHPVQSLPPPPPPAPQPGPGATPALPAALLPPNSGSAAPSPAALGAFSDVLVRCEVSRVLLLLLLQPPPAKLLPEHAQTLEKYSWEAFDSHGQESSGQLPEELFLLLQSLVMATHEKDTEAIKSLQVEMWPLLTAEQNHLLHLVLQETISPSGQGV
METHOD: FP
Bridges are numbered along the chain shown (N, C = ends). Primed or numbered codes have the meaning given here. [ ]: non-standard residue; d: D form. FITC′ = not defined here
Numbers only, as −log10 of the molar value.

Recorded pKd, per entry:
# BINDER, pKd
data = [
    ("{CH2CO}-YLIRSSFNWFVFVEVPC-{FITC′} (thioether N-17 (inferred); not fully specified) [FITC-labeled HHL1]", 8.59),
    ("{CH2CO}-YTARYLTLGTLHYKC-{FITC′} (thioether N-15 (inferred); not fully specified) [FITC-labeled HL2]", 8.40),
]

Note: attention shifts to another entry.
Data request: Return reported pKd. Input binder: {CH2CO}-[dY]TRHWQNNWWILYHEFC-{FITC′} (thioether N-17 (inferred); not fully specified) [FITC-labeled HHD3]
Data returned: 8.59
